Origin of values: patent US7560473B2

- Tested on: outward potassium currents of rat tail arterial SMCs
- methodDescription: Whole cell recording of outward potassium currents in rat tail arterial SMCs
- Type: cell-based, Wistar rats
- conditionDescription: outward potassium current amplitude after compound 100 μmol L^−1 in the bath; X ± SD n = 5
Marks after values point to notes of the source that are not given here.
parameterMeasured: Currents, + Compound

INSERT INTO results (compound, measurementtarget, testresult) VALUES
  ('CC(C)C(C)(C)NC(=O)c1cccnc1 [compound 39]', 'outward potassium currents of rat tail arterial SMCs', '0.51 ± 0.22 nA');

Form: Entry = CC(C)C(C)(C)NCC1CC1 [compound 15] | System = outward potassium currents of rat tail arterial SMCs | Currents, + Compound = ____ 1.30 ± 0.45* nA

Given the entry C=CCNC(C)(C)C(C)C [compound 25, N-allyl-2,3-dimethyl-2-butylamine] , what Currents, + Compound was observed with outward potassium currents of rat tail arterial SMCs? 1.46 ± 0.50** nA

# value lookup — system outward potassium currents of rat tail arterial SMCs, readout Currents, + Compound, item CCC(C)NC(C)(C)C(C)C (stereo not shown) [compound 13] 0.85 ± 0.31** nA
